Entry source: the supplement of paper PMC3545927

Exercise: state measured furin cleavage Z-score for each of the sequences provided.
measured target: furin, P09958;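 also: purified furin at 1:10 enzyme:substrate in 50 mM HEPES pH 7.5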
Sequence (P09958 whole entry): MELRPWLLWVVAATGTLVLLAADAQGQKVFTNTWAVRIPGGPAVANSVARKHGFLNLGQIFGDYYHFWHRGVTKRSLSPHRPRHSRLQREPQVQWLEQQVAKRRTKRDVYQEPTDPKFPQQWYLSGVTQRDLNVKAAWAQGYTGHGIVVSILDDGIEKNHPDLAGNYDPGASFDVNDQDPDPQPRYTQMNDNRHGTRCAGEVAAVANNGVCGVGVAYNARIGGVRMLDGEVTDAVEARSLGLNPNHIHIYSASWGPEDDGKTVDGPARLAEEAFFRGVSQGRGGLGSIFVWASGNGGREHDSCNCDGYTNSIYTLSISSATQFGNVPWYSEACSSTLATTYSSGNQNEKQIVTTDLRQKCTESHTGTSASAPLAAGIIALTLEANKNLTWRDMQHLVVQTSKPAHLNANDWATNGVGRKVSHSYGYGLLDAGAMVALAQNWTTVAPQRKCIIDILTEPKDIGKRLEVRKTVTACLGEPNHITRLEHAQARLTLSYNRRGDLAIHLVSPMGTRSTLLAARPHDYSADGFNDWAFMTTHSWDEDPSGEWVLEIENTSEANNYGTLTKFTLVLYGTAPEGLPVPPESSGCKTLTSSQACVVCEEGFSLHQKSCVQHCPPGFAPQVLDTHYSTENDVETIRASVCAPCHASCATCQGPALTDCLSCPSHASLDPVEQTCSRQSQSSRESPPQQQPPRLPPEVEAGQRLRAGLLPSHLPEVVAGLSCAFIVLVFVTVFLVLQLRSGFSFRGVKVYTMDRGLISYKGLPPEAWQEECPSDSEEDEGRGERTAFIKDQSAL
assay info: furin cleavage Z-score vs untreated control; higher = more cleavage, active = 3.5 or more, inactive = 1 or less, 8 variable residues between constant flanks
condition info: 30 min
The list shows a part of the results. How many sequences the whole screen found active is unknown.
Give bare numbers.

                  seq_string           quantity_name  number
0  CATTPCNGSWAGNASASA [HC78]  furin cleavage Z-score   0.215

Parameters: items (list). Returns: furin cleavage Z-score for each item.
1. CADTPCSGSWAGNASASA [HC1831]
2. CAEVPCHRYSAGNASASA [HC2389]
3. CARTHRSKRSAGNASASA [FS-957]
4. CAVVECSMSYAGNASASA [HC2032]

1: -0.127; 2: 1.5; 3: 8.26; 4: 0.282
